B1: TRAF3IP2 (parent)
chain: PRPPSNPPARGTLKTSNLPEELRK

# Variants of: B1
# PROTOCOL DETAILS: protein stability index of a GFP-peptide fusion (GPS, HEK-293T) (PSI 1-6); higher = more stable;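 note: lentivirally expressed fusions sorted by FACS into six bins by GFP to DsRed ratio, PSI derived from sequencing read proportions per bin multiplied by bin number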
# MEASUREMENT CONTEXT: c terminus: a fixed tail appended
Listed variants paired with reported protein stability index
MEASURED PROPERTY: protein stability index

record_sequence="PRPPSIPPARGTLKTSNLPEELRK [N6I]" numeric_value=4.62
record_sequence="PRPPSNPPARGTLKTSNMPEELRK [L18M]" numeric_value=4.5
record_sequence="PRPPSNPPARGTLKTSNLPEGLRK [E21G]" numeric_value=4.36
record_sequence="PRPPSNPPFRGTLKTSNLPEELRK [A9F]" numeric_value=4.37
record_sequence="PRPPSNPPARGTLKTSNRPEELRK [L18R]" numeric_value=4.56
record_sequence="PRPPSNPPARGTLKTSNLPEEARK [L22A]" numeric_value=4.55
record_sequence="PRPPSNPPARGTLKTSNLPEELKK [R23K]" numeric_value=4.92
record_sequence="PRPPSNPPARGTLKTSNLPEELRT [K24T]" numeric_value=4.8
record_sequence="PRPPSNPPQRGTLKTSNLPEELRK [A9Q]" numeric_value=4.7
record_sequence="PRPPSNPPARGTLKTSMLPEELRK [N17M]" numeric_value=4.8
record_sequence="PRPPSNPPARGTLKTSNLPEELRY [K24Y]" numeric_value=3.78
record_sequence="PRPPSNPPARGTLKTSWLPEELRK [N17W]" numeric_value=3.51
record_sequence="PRPPSNPPARGTLKTQNLPEELRK [S16Q]" numeric_value=4.48
record_sequence="PRPPSVPPARGTLKTSNLPEELRK [N6V]" numeric_value=4.79
record_sequence="PRPPSNPPARGTLKDSNLPEELRK [T15D]" numeric_value=5.13
record_sequence="PRPPSNPPARGTTKTSNLPEELRK [L13T]" numeric_value=4.82
record_sequence="PRPPSNEPARGTLKTSNLPEELRK [P7E]" numeric_value=4.81
record_sequence="PRPPSNPPARGTLKTSALPEELRK [N17A]" numeric_value=5.05
record_sequence="PRPPSNPPACGTLKTSNLPEELRK [R10C]" numeric_value=4.58
record_sequence="PRPVSNPPARGTLKTSNLPEELRK [P4V]" numeric_value=4.53
record_sequence="SRPPSNPPARGTLKTSNLPEELRK [P1S]" numeric_value=4.62
record_sequence="PRPPSNPPARGTLKTSNLPCELRK [E20C]" numeric_value=4.44
